Assay: Solubility in water
Type: physicochemical
Conditions: water, 25 °C, thermodynamic from solid, dissolving in water with vigorous stirring for 30 minutes at 25° C.
readout-kind: solubility at 30 min
Answer with the value and then the unit.

[ask] What value of solubility at 30 min has been reported for the following molecule? CC1=NN(c2ccccc2)C(=O)C1 [A new form of FMP, 1-phenyl-3-methyl-5-pyrazolone]
[reply] 300 µg/mL

----------
Provide the reported Quantification of each item.
Experiment: Storage stability in climate chamber at 25° C. and 60% relative humidity for 24 months
Type: physicochemical
Details: 0 months; normalization more than 99.0
Answer with the value and then the unit.

CC1=NN(c2ccccc2)C(=O)C1 [Known form of FMP, 1-phenyl-3-methyl-5-pyrazolone, reference compound] = 99.8%

[ask] What value of Quantification has been reported for the following compound? CC1=NN(c2ccccc2)C(=O)C1 [A new form of FMP, 1-phenyl-3-methyl-5-pyrazolone]
[reply] 99.8%
